Value source: ChEMBL document CHEMBL1795235

Test system: Staphylococcus aureus
Test: Antibacterial activity against vancomycin-intermediate Staphylococcus aureus Mu50 after 24 hrs by microdilution method
Type: functional
Conditions: Mu50, 24 h
assay_endpoint: MIC (µg/mL)
Express your answer in µg/mL, writing the number without its unit.

smiles_text	MIC / µg/mL
O=C(CCc1ccc(F)cc1)OC[C@H]1O[C@@H](Oc2c(-c3ccc(O)c(O)c3)oc3cc(O)cc(O)c3c2=O)[C@H](OC(=O)CCc2ccc(F)cc2)[C@@H](O)[C@H]1O	0.5

Input line: Entry O=C(CCc1ccc(F)cc1)Oc1cc(O)c2c(=O)c(OC(=O)CCc3ccc(F)cc3)c(-c3ccc(O)c(O)c3)oc2c1 : reported MIC = ?
Output line: 32

Input line: Entry O=C(O[C@H]1[C@H](Oc2c(-c3ccc(O)c(O)c3)oc3cc(O)cc(O)c3c2=O)O[C@H](CO)[C@@H](O)[C@@H]1OC(=O)c1ccc(F)cc1)c1ccc(F)cc1 : reported MIC = ?
Output line: 1

Input line: Entry CCOc1ccc(C(=O)O[C@H]2[C@H](Oc3c(-c4ccc(O)c(O)c4)oc4cc(O)cc(O)c4c3=O)O[C@H](CO)[C@@H](O)[C@@H]2OC(=O)c2ccc(OCC)cc2)cc1 : reported MIC = ?
Output line: 1

Input line: Entry CCCc1ccc(C(=O)O[C@H]2[C@H](Oc3c(-c4ccc(O)c(O)c4)oc4cc(O)cc(O)c4c3=O)O[C@H](CO)[C@@H](O)[C@@H]2OC(=O)c2ccc(CCC)cc2)cc1 : reported MIC = ?
Output line: 1
